Target: human SLC6A19 (Homo sapiens, UniProt Q695T7)
Construct: expressed in transfected cells
Sequence (Q695T7 1-634): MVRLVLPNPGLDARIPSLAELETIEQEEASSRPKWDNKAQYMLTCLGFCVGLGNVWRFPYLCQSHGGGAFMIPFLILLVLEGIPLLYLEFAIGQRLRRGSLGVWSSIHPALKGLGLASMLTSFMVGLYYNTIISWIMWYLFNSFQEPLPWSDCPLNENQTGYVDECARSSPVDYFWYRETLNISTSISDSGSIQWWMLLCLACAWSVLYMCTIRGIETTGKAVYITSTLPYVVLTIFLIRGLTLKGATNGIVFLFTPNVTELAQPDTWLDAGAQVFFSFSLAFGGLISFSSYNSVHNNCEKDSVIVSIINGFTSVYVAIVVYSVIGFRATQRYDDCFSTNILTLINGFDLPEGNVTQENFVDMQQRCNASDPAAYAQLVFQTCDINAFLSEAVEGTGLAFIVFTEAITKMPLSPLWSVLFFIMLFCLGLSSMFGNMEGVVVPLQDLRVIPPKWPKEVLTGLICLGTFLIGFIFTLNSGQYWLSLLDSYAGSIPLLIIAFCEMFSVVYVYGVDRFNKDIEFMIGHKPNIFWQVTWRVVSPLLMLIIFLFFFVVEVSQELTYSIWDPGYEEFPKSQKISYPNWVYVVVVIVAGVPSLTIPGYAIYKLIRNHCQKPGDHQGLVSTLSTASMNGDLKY
Sequence (Q9HBJ8 15-222 partner): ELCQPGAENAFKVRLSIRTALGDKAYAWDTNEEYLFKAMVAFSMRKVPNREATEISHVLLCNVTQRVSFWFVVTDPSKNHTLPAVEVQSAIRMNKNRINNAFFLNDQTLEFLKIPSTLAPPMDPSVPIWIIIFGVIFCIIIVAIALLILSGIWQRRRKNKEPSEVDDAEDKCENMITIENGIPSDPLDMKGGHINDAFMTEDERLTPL
Test: Example B-1: L-[3H]leucine uptake, liquid scintillation, in CHO cells with doxycycline-inducible expression of human SLC6A19 and TMEM27
Type: cell-based
Conditions: read-out: SLC6A19_Radioligand Uptake Assay IC50
METRIC_NAME: IC50

Before answering, review these 5 worked examples.
molecule=CN(C(=O)NCc1cc2cc(Cl)ccc2[nH]1)[C@@H]1CCCN(C(=O)Cc2ccon2)C1 result="205 nM"
molecule=CN(C(=O)NCc1cc2cc(Cl)ccc2[nH]1)[C@@H]1CCCN(C(=O)C2(C)CCC2)C1 result="1620 nM"
molecule="CN(C(=O)NCc1cc2cc(Cl)ccc2[nH]1)[C@@H]1CCCN(C(=O)C2CC(O)C2)C1 (stereo partly drawn)" result="629 nM"
molecule=CN(C(=O)NCc1cc2cc(Cl)ccc2[nH]1)[C@@H]1CCCN(C(=O)c2cc(F)n(C)n2)C1 result="688 nM"
molecule=CN(C(=O)NCc1cc2cc(Cl)ccc2[nH]1)[C@@H]1CCCN(C(=O)N2CC(F)(F)C2)C1 result="807 nM"

Field: IC50. Fill in for each record below.
1. CN(C(=O)NCc1cc2cc(Cl)ccc2[nH]1)[C@@H]1CCCN(C(=O)c2ccn[nH]2)C1
2. CC(=O)N1CCC[C@@H](N(C)C(=O)NCc2cc3cc(C4CC4)ccc3[nH]2)C1
3. CN(C(=O)NCc1cc2cc(Cl)ccc2[nH]1)[C@@H]1CCCN(C(=O)Cc2cnco2)C1
4. Cc1conc1N1CCC[C@@H](N(C)C(=O)NCc2cc3cc(Cl)ccc3[nH]2)C1
5. CN(C(=O)NCc1cc2cc(Cl)ccc2[nH]1)[C@@H]1CCCN(C(=O)c2cnoc2)C1
6. CC(=O)N1C[C@@H](N(C)C(=O)NCc2cc3cc(Cl)ccc3[nH]2)CC[C@H]1C (single isomer, unassigned)
7. CC(=O)N1CCC[C@@H](N(C)C(=O)NCCc2cc(-c3cc4ccccc4[nH]3)c(Cl)cc2F)C1
8. CC(=O)N1CCC[C@@H](N(C)C(=O)NCCc2ccc(F)c(-c3cc4ccccc4[nH]3)c2)C1

OUTPUT:
1. 151 nM
2. 794 nM
3. 444 nM
4. 367 nM
5. 283 nM
6. > 50000 nM
7. 459 nM
8. > 10000 nM

Field: IC50. Fill in for each record below.
1. CN(C(=O)NCc1cc2cc(Cl)ccc2[nH]1)[C@@H]1CCCN(C(=O)Cc2ccno2)C1
2. CC(=O)N1CCC[C@@H](N(C)C(=O)NCc2cc3cc(C(F)(F)F)ccc3[nH]2)C1

OUTPUT:
["197 nM", "259 nM"]
